Parameter 'readout' = pKi; parameter 'system' = Induced myeloid leukemia cell differentiation protein Mcl-1 (Homo sapiens).
Sequence (Q07820 whole entry): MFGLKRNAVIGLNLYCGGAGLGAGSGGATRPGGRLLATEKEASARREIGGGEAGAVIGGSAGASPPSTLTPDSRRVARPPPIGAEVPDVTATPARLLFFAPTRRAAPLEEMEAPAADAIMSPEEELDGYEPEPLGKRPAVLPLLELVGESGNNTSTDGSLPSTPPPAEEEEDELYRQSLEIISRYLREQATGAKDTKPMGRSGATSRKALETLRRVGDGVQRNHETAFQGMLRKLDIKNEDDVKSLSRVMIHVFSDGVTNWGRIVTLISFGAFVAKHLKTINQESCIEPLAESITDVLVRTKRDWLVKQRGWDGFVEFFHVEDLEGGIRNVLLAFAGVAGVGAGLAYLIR
pKi: −log10 of the molar value.

{"molecule_smiles": "CCCS(=O)(=O)N1CCN(c2ccc(OCc3c(-c4cccc5c(CCCOc6cccc7ccccc67)c(C(=O)O)n(CCN6CCOCC6)c45)c(C)nn3C)cc2)CC1", "pKi": 8.06}
{"molecule_smiles": "Cc1nn(C)c(COc2ccccc2)c1-c1cccc2c(CCCOc3cccc4ccccc34)c(C(=O)O)n(CCN3CCOCC3)c12", "pKi": 6.94}
{"molecule_smiles": "Cc1nn(C)c(COc2ccc(N3CCN(S(=O)(=O)N4CCOCC4)CC3)cc2)c1-c1cccc2c(CCCOc3cccc4ccccc34)c(C(=O)O)n(CCN3CCOCC3)c12", "pKi": 7.91}
{"molecule_smiles": "CCOC(=O)c1c(CCCOc2cccc3ccccc23)c2cccc(-c3c(C)nn(C)c3COc3ccc(N4CCNCC4)cc3)c2n1CCN1CCOCC1", "pKi": 7.92}
{"molecule_smiles": "CCS(=O)(=O)N1CCN(c2ccc(OCc3c(-c4cccc5c(CCCOc6cccc7ccccc67)c(C(=O)O)n(CCN6CCOCC6)c45)c(C)nn3C)cc2)CC1", "pKi": 8.31}
{"molecule_smiles": "CC(=O)N1CCN(c2ccc(OCc3c(-c4cccc5c(CCCOc6cccc7ccccc67)c(C(=O)O)n(CCN6CCOCC6)c45)c(C)nn3C)cc2)CC1", "pKi": 8.57}
